assay-overview: Inhibition of rat spleen IMP dehydrogenase using NAD and IMP up to 1 hr
Format: tissue-based
reported-property: IC50 (µM)
Only the number, expressed in µM, is required.

{"columns": ["molecule", "display-unit", "IC50"],
 "data": [
  ["O=C(O)c1ncn([C@@H]2O[C@H](COP(=O)(O)O)[C@@H](O)[C@H]2O)n1", "µM", 70]
]}

IN: Could you share which IC50 value was measured for NC(=O)c1ncn([C@@H]2O[C@H](COP(=O)(O)O)[C@@H](O)[C@H]2O)n1 [RIBAVIRIN MONOPHOSPHATE] ?
OUT: 2

---

Species: Rattus norvegicus
assay-overview: Activity at rat liver nucleoside kinase assessed as phosphorylation using [gamma-32P]-ATP after 10 to 20 mins
Activity calls are given as the source filed them. The rule behind the calls is not given here.
Output constraint: value belongs to active, inactive

{"columns": ["entry-smiles", "group"],
 "data": [
  ["NC(=O)c1ncn([C@@H]2O[C@H](CO)[C@@H](O)[C@H]2O)n1", "active"]
]}

IN: Recorded call for "OC[C@H]1O[C@@H](n2cncn2)[C@H](O)[C@@H]1O" ?
OUT: inactive

IN: What do you have for "CO[C@H]1[C@@H](O)[C@H](n2cnc(C(N)=O)n2)O[C@@H]1CO" ?
OUT: inactive

IN: What do you have for "O=C(O)c1ncn([C@@H]2O[C@H](CO)[C@@H](O)[C@H]2O)n1" ?
OUT: inactive

IN: What do you have for "CO[C@@H]1[C@H](O)[C@@H](CO)O[C@H]1n1cnc(C(N)=O)n1" ?
OUT: inactive

IN: What do you have for "Nc1ncnc2c1ncn2[C@@H]1O[C@H](CO)[C@@H](O)[C@H]1O" ?
OUT: active
